Values from the supplement of paper PMC3334620

Field: PBM E-score. Provide a value for each of the sequences that follow.
- TESTED_TARGET: Cst6 (UniProt P40535)
- Sequence (P40535 whole entry): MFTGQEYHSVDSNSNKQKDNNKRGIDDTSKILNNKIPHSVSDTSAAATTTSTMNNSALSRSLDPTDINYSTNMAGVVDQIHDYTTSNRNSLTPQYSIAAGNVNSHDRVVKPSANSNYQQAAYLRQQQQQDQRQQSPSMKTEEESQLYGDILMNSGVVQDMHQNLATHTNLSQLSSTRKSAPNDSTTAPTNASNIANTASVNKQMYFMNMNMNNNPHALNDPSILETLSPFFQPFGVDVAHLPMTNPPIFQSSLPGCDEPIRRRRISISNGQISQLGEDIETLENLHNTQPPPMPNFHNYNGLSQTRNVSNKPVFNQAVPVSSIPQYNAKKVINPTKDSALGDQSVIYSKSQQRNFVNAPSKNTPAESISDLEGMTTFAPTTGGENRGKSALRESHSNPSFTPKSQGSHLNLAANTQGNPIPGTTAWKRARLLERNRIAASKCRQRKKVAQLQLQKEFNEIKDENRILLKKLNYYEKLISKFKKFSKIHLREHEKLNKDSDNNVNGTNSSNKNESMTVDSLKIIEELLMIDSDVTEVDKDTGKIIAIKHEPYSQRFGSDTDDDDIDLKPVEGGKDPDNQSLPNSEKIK
- METHOD_DESCRIPTION: PBM E-score (8-mer binding enrichment) (E-score (-0.5 to 0.5)); higher = stronger / more preferred TF binding
- EXPERIMENTAL_CONTEXT: protein concentration: 200 nM; construct: GST-DNA-binding domain
Over roughly 33,000 sequences, “E-score (-0.5 to 0.5)” has its median near -0.016; the highest 2% begin near 0.31. The list comes from a sample in which the highest values are over-represented; it also holds close analogues and randomly drawn sequences.
Answers are plain numbers.

ATCATCAT ... 0.355
ACAATTAC ... 0.249
ATATTACC ... 0.248

Lab note: each sequence below needs its PBM E-score filled in.
1. GCTGATAC
2. CTGAGAGC
3. ACAATTAA
4. AATTACAG
5. ATAATTAC
6. GTCTCCAA
7. AATTACGC

## Result
1: -0.0819; 2: -0.0922; 3: 0.319; 4: 0.15; 5: 0.349; 6: -0.00606; 7: 0.331

====

- TESTED_TARGET: Cst6 (UniProt P40535)
- METHOD_DESCRIPTION: PBM E-score (8-mer binding enrichment) (E-score (-0.5 to 0.5)); higher = stronger / more preferred TF binding
- EXPERIMENTAL_CONTEXT: protein concentration: 200 nM; construct: GST-DNA-binding domain
In all, about 33,000 sequences were measured (“E-score (-0.5 to 0.5)”: median about -0.016, highest 2% from about 0.31 on). Only a selection was taken, and the highest values are over-represented in it overall.
Label rule, in plain words: PBM E-score of 0.1 and up is Yes, under 0.1 is No.

## Task Evaluate GCACCTGC : PBM E-score at minimum 0.1?
## Result No

## Task Evaluate ATATGACA : PBM E-score at minimum 0.1?
## Result Yes

## Task Evaluate AGGGCAGA : PBM E-score at minimum 0.1?
## Result No

## Task Evaluate CTTTCTGC : PBM E-score at minimum 0.1?
## Result No

## Task Evaluate GCGGTGCC : PBM E-score at minimum 0.1?
## Result No

## Task Evaluate ACATCCCC : PBM E-score at minimum 0.1?
## Result No

## Task Evaluate AAATGACT : PBM E-score at minimum 0.1?
## Result No

====

Field: PBM E-score. Provide a value for each of the sequences that follow.
- TESTED_TARGET: Cst6 (UniProt P40535)
- METHOD_DESCRIPTION: PBM E-score (8-mer binding enrichment) (E-score (-0.5 to 0.5)); higher = stronger / more preferred TF binding
- EXPERIMENTAL_CONTEXT: protein concentration: 200 nM; construct: GST-DNA-binding domain
The full ranking holds about 33,000 sequences; the median of “E-score (-0.5 to 0.5)” is about -0.016, and the highest 2% start at about 0.31. The sample holds the highest values, similar sequences and a random draw of the others, so the mix is not that of the screen.
One number for each entry.

Illustrative cases are given below, each with its answer.
TACCAGAA ... 0.0986
AATTACCC ... 0.0706
CCTAATTA ... -0.00674
CTATCGGA ... -0.0998
ACTAATTA ... 0.351

Now take the following sequence into account.
## Task Given the entry ATAATGAG , what PBM E-score was observed with Cst6 (UniProt P40535)?
## Result 0.0695

====

- TESTED_TARGET: Cst6 (UniProt P40535)
- METHOD_DESCRIPTION: PBM E-score (8-mer binding enrichment) (E-score (-0.5 to 0.5)); higher = stronger / more preferred TF binding
- EXPERIMENTAL_CONTEXT: protein concentration: 200 nM; construct: GST-DNA-binding domain
The full ranking holds about 33,000 sequences; the median of “E-score (-0.5 to 0.5)” is about -0.016, and the highest 2% start at about 0.31. For the sample, the highest values were picked, then their nearest neighbours and some sequences at random.
QUANTITY_KIND: PBM E-score
Answers are plain numbers.

Illustrative cases are given below, each with its answer.
GTACATCA ... 0.275
CAATGCCA ... -0.0721
TAGGCTGA ... -0.0803
CTCTCAAG ... -0.14
AAGGTGAC ... 0.243

Lab note: each sequence below needs its PBM E-score filled in.
1. GAGGTGAC
2. CAGGACAA
3. AACGGCAT
4. ATAGATGG
5. ATGCATCG
6. TGAGATCA

## Result
[0.407, 0.0953, 0.346, -0.129, -0.00649, 0.344]

Lab note: each sequence below needs its PBM E-score filled in.
1. GCGGTGAA
2. ATGCATCA
3. AGAGATCA

## Result
0.0906
0.372
-0.0737
